Where do the numbers come from? From paper PMC4822498.

# Test system: HIV-1ZA/97/009
# Experimental protocol: Anti-HIV assay in fresh human PBMCs
# Type: cell-based
# Condition parameters: Human immunodeficiency virus 1, PBMC, in Homo sapiens
Measure name: EC50 (nM)

line_notation=Cc1cc(C)cc(C(=O)c2c(C(C)C)c(=O)[nH]c(=O)n2CC2CC2)c1 experimental_value=6
